B1: Lysozyme C, P61626 (parent)
chain: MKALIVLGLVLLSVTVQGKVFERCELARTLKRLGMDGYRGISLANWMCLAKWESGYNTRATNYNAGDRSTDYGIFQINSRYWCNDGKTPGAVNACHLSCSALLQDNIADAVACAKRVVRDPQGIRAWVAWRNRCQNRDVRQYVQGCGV

variants of: B1; conditions: Homo sapiens; pH 2.7; 64.9 °C; Thermal; DSC; glycine 0.05 M; reversible: yes; structure 1LZ1; whole UniProt chain shown
Parameter threshold = 0.8 kcal/mol. Response is 1 when ddG of mutation (higher = less stable) meets or exceeds it, else 0.

{"sequence-entry": "MKALIVLGLVLLSVTVQGKVFERCELARTLKRLGMDGYRGISLANWMCLAKWESGYNTRATNYNAGDRSTDYGIFQINSRYWCNDGKTPGAVNACHLSCSALLQDNIADAVACAKRVVRDPQGIRAWVAWRNRCQNRDVRQYAQGCGV [V143A]", "category": 1}
{"sequence-entry": "MKALIVLGLVLLSVTVQGKVFERCELARTLKRLGMDGYRGISLANWMCLAKWESGYNTRATNYNAGDRSTDYGIFQINSRYWCNDGKTPGAVNACHLSCSALLQDNIADAVACAKRVARDPQGIRAWVAWRNRCQNRDVRQYVQGCGV [V118A]", "category": 0}
{"sequence-entry": "MKALIVLGLVLLSVTVQGKVFERCELARTLKRLGMDGYRGISLANWMCLAKWESGYNTRATNYNAGDRSTDYGIFQINSRYWCNDGKTPGAANACHLSCSALLQDNIADAVACAKRVVRDPQGIRAWVAWRNRCQNRDVRQYVQGCGV [V92A]", "category": 0}
{"sequence-entry": "MKALIVLGLVLLSVTVQGKAFERCELARTLKRLGMDGYRGISLANWMCLAKWESGYNTRATNYNAGDRSTDYGIFQINSRYWCNDGKTPGAVNACHLSCSALLQDNIADAVACAKRVVRDPQGIRAWVAWRNRCQNRDVRQYVQGCGV [V20A]", "category": 1}
{"sequence-entry": "MKALIVLGLVLLSVTVQGKVFERCELARTLKRLGMDGYRGISLANWMCLAKWESGYNTRATNYNAGDRSTDYGIFQINSRYWCNDGKTPGAVNACHLSCSALLQDNIADAVACAKRAVRDPQGIRAWVAWRNRCQNRDVRQYVQGCGV [V117A]", "category": 1}
{"sequence-entry": "MKALIVLGLVLLSVTVQGKVFERCELARTLKRLGMDGYRGISLANWMCLAKWESGYNTRATNYNAGDRSTDYGIFQINSRYWCNDGKTPGAVNACHLSCSALLQDNIADAVACAKRVVRDPQGIRAWAAWRNRCQNRDVRQYVQGCGV [V128A]", "category": 0}
{"sequence-entry": "MKALIVLGLVLLSVTVQGKVFERCELARTLKRLGMDGYRGISLANWMCLAKWESGYNTRATNYNAGDRSTDYGIFQINSRYWCNDGKTPGAVNACHLSCSALLQDNIADAVACAKRVVRDPQGIRAWVAWRNRCQNRDARQYVQGCGV [V139A]", "category": 1}
{"sequence-entry": "MKALIVLGLVLLSVTVQGKVFERCELARTLKRLGMDGYRGISLANWMCLAKWESGYNTRATNYNAGDRSTDYGIFQINSRYWCNDGKTPGAVNACHLSCSALLQDNIADAVACAKRVVRDPQGIRAWVAWRNRCQNRDVRQYVQGCGA [V148A]", "category": 1}

This collection of values is drawn from FireProtDB (doi:10.1021/bi9621829).
